- Measurement Protocol: folding stability dG unfold (combined trypsin and chymotrypsin); higher = more stable
Readout Label: folding stability dG unfold (kcal/mol)

{"Query Sequence": "SAMKIVEIVEYDKEKKKIRIKIEVNGKLLEIEIEAESEEEVEEALKKLKEELEFELPDGKKVRITEIEISAG [r14_422_TrROS_Hall]", "Measurement": 1.63}
{"Query Sequence": "SAGGSAGGSAGGKATLGEDGFLVIEREVELPDGPYRPETLVIPLPELTPEEVERLLETESAGGSAGGSAGGS [r10_1096_TrMRF]", "Measurement": 1.05}
{"Query Sequence": "SAMMVVYYDPETGELVLVDPSEIPPELVEKGIEPVRLVPLRILVEVESEEEAEELARLFPDLVEVSLNPSAG [r14_638_TrMRF]", "Measurement": 1.88}
{"Query Sequence": "SAGGSAGGSMPPLAPDETVTQTLPSPDGSEVLVTYTWVPGEGLVETKVTDPATGKTTSTKTPVPSAGGSAGG [r6_440_JUSTAS]", "Measurement": -0.0833}
{"Query Sequence": "SAMVVIKPEGDKIVVEITLPDGSTKVIELPEVEKIEIKGDTLIITDPKTGKKIIPENTTVSNPKIEPAKSAG [r14_83_JUSTAS]", "Measurement": 0.0698}
{"Query Sequence": "SAGGMILEIEFPPELIEELLEKLKKEFPDVEVKPLKIEYDPETGLVKVPILVKTKNPEEVEKIKKLAASAGG [r13_539_TrMRF]", "Measurement": 2.83}
{"Query Sequence": "SMPLLVKVDTPEQREKLLKVLEEIEKETDIKIELVSEHPDGKYEFLIEAPLEEAVKIAKKLKEAGNVEIVSA [r9_472_TrMRF]", "Measurement": 3.7}

----------
Measured folding stability dG unfold of individual entries
- Measurement Protocol: folding stability dG unfold (combined trypsin and chymotrypsin); higher = more stable

{"Query Sequence": "SAGGSAGGSERWVKIWFPPGGTLEEASKMIEEWAQQLGLPITKIDEIEWDPGNGRVEITIRLKSAGGSAGGS [r12_131_TrROS]", "Result Units": "kcal/mol", "Readout Qualifier": "=", "folding stability dG unfold": 2.02}
{"Query Sequence": "SAGGMPAKAVTTKLPDGTDRITVTTVGSGKSATIPVPAGELKVIEIEEGEETLSVSFVEVGPDNPELGSAGG [r13_122_TrMRF]", "Result Units": "kcal/mol", "Readout Qualifier": "=", "folding stability dG unfold": 0.104}
{"Query Sequence": "SAGGPFDDFEPLGTIPFKVNGMEIEIQIWRMKNPGHYMVDIRNPGFGIPVMYWVPPGDIEEILDLIRSAGGS [r8_469_TrROS]", "Result Units": "kcal/mol", "Readout Qualifier": "=", "folding stability dG unfold": 2.7}
{"Query Sequence": "SAGGSMTPAELANEIAEKLHEELPPDKSVTITMRFGSGPVTLTIPPDARVDVPEDRPLEVDEISIGSAGGSA [r2_391_JUSTAS]", "Result Units": "kcal/mol", "Readout Qualifier": "<", "folding stability dG unfold": -1}
{"Query Sequence": "SAGGSFLVPTSSMEEAEEIKNAVLAGEPVTVTPPDGVPVTVKAKSVEVDPETGKVRIIDPSGEKLALSAGGS [r16_254_JUSTAS]", "Result Units": "kcal/mol", "Readout Qualifier": "=", "folding stability dG unfold": 0.379}
{"Query Sequence": "SAGGSGRQMVRNIVRHALDQQQQHGKPIDKIYIFGPPNMRKEIKKELEEEGLPPGVKITIVPAEDMQSAGGS [r16_164_TrROS]", "Result Units": "kcal/mol", "Readout Qualifier": "=", "folding stability dG unfold": 0.326}
{"Query Sequence": "SAGGSAGGSAGGLAPAPDGSPVAVLLDDGRVVVFDPETAELYVAFVTPDSVRVVPLPLDLSAGGSAGGSAGG [r7_527_TrMRF]", "Result Units": "kcal/mol", "Readout Qualifier": "=", "folding stability dG unfold": 0.332}
{"Query Sequence": "SAGKQEIKVEAVFPGDTLEEFMEFIREFLAEQGLKIEPTEFEIDKVQPMPGGPMIRVTAWIKIEPPDDSAGG [r19_325_TrROS]", "Result Units": "kcal/mol", "Readout Qualifier": "=", "folding stability dG unfold": 2.8}
{"Query Sequence": "SAGGEIPPNAKIDELEISPGSGYIRIKVEFYDPDGKPIWKMTITIPIKPVPRPSPEDQKEQNKKNKKSAGGS [r16_697_TrROS]", "Result Units": "kcal/mol", "Readout Qualifier": "=", "folding stability dG unfold": 2.39}
{"Query Sequence": "SAGMPVEIPLVIRLTRYRDLPDGPELAEVRELPLPLRADPSELDNPELLAFIREALEKLPDEIREVEIASAG [r5_849_TrMRF]", "Result Units": "kcal/mol", "Readout Qualifier": "=", "folding stability dG unfold": 0.479}
{"Query Sequence": "SAGGSAGGSGIEELKKAGFEIVRIERKEDGTLRLTVRNKETEETKTIEITLPEAEVELVEPPESAGGSAGGS [r12_166_TrROS_Hall]", "Result Units": "kcal/mol", "Readout Qualifier": "=", "folding stability dG unfold": 3.57}
{"Query Sequence": "SAGGNNIYVHIQFKPKEQKMERTPDNGKWDMEYKWEIDITIYYPKGMSPEQAERLVNELREIFPGIKSAGGS [r8_306_TrROS]", "Result Units": "kcal/mol", "Readout Qualifier": "=", "folding stability dG unfold": 1.99}

----------
- Measurement Protocol: folding stability dG unfold (combined trypsin and chymotrypsin); higher = more stable

{"Query Sequence": "SAGGSAGGSAGGGPGLSVTTTVLVPKDPSTSVLTVPLPPSATVTAVTPETNTVTVRTASSAGGSAGGSAGGS [r10_247_JUSTAS]", "Readout Qualifier": "<", "folding stability dG unfold / kcal/mol": -1}
{"Query Sequence": "SAGGSAGGSAGKIDPKDIEKVEFEIDEESGKGKAFVILKNGEPAEIEFSSIEEAIKALLGSAGGSAGGSAGG [r11_339_TrMRF]", "Readout Qualifier": "=", "folding stability dG unfold / kcal/mol": 1.37}
{"Query Sequence": "SAGGPFRVRISDEVIKELKKQGLKPGKKSVKITMQYPNGWVFRGTIKIPPANPKIPLKAEPVERLDDSAGGS [r16_497_TrROS]", "Readout Qualifier": "=", "folding stability dG unfold / kcal/mol": 0.482}
{"Query Sequence": "SEKIVIEFPNPEEATVELIKSIIKPYLEPGEKVKIKVFSKDGKPLFEKELEFNEVEEVPKEKDYLIVIEKSA [r9_264_TrMRF]", "Readout Qualifier": "=", "folding stability dG unfold / kcal/mol": 1.14}
{"Query Sequence": "SAGGSAGGSAGGSGMTYRTVEIEVRLPEVPGKTVKITIVVPEGATEEEIKALAEELARKSAGGSAGGSAGGS [r4_442_TrROS_Hall]", "Readout Qualifier": "=", "folding stability dG unfold / kcal/mol": 2.94}

----------
- Measurement Protocol: folding stability dG unfold (combined trypsin and chymotrypsin); higher = more stable
# folding stability dG unfold >= 2 kcal/mol gives yes (1), anything below gives no (0)

{"Query Sequence": "SMEPGERYRITATRKDGSRVEVEAIPGGVLRARVYLPNGELVGEAEFPVDRPVELLEALGLDELVSVEPESA [r9_1107_TrMRF]", "Answer Label": "yes (1)"}
{"Query Sequence": "SAGMVEVSVTVSPRADGTITVTITLTKTFPVKDSKGNLYLETTTKTVTVPVTSLEEAPVIVKEVIDKLSAGG [r19_218_JUSTAS]", "Answer Label": "yes (1)"}
{"Query Sequence": "SAGGSAGGSGGFLVLEFEIEVDPEDPEKALAVVEALVESLGFEPVLIEVEEDENRVRVRVLLGSAGGSAGGS [r12_731_TrMRF]", "Answer Label": "yes (1)"}
{"Query Sequence": "SAGFKIKIEPDKNMPPGQKPMTEEELKKIAKSIAKQMEQDPGNPGKEVKIEIPFYFPDGYWYRIEIEKSAGG [r19_132_TrROS]", "Answer Label": "no (0)"}
{"Query Sequence": "SEAKTMSPEELKEFIEEYIEEERKKNPGKPVRIAIEDLKEKFPGFSPEELKKLLGLSEEELENGAIEIEPSA [r9_525_TrMRF]", "Answer Label": "yes (1)"}
{"Query Sequence": "SAGGMVNLRLYNPATGEPIDFPVPKDVVEEMLKNGDLAALEALFPGFPIAKVEVDEGEEVPAVPPDEASAGG [r13_629_TrMRF]", "Answer Label": "no (0)"}
{"Query Sequence": "SAGGSPIISTEKSSSGVTTITFPDGTVVTEVTTPLPDGTVLTTTTVTPPNAPVSTTTTTDPVPPGLPSAGGS [r16_211_JUSTAS]", "Answer Label": "no (0)"}
{"Query Sequence": "SAGGPSHPLGPVALTLDPAASTLTVTLGDEVLTLPVPPGVTATATSYPDSVTVTLTFPDGTVVTVTLPLSAG [r5_21_JUSTAS]", "Answer Label": "yes (1)"}
{"Query Sequence": "SAGGSAGGSDPAKKPVYLLATVEVEIGEVVDPNTGEPSHEHRVTVRFLITIDPDGNISISSLTSAGGSAGGS [r12_438_TrMRF]", "Answer Label": "yes (1)"}
{"Query Sequence": "SAGGSAGGGKRLEITRTYFIPPDDIDKLKDLPGIREVTPHRMPDGYYMITVTIRIPISADQLKASAGGSAGG [r6_155_TrROS]", "Answer Label": "no (0)"}
{"Query Sequence": "SAGGSAGGPKHVEIVITPDLRKEIEENQKEGDPPTLMEIAKEIAREFRANGMPVDIKILPPEDFSAGGSAGG [r6_815_TrROS]", "Answer Label": "no (0)"}
{"Query Sequence": "SAGGSAGGRLLLVKITLPDGEEITIVLEFESEEEARAAAEALLPPGAKVEVRELSEEELEALLKSAGGSAGG [r6_267_TrROS_Hall]", "Answer Label": "yes (1)"}
{"Query Sequence": "SAGGMEEIEPVTITITVVDEETGEKVEIKITVPKEEITRIEIKPDGTIRIYFKENNEVIEIKLEDIKSAGGS [r16_410_TrROS_Hall]", "Answer Label": "yes (1)"}
{"Query Sequence": "SAGGSAGGSAGMVTIYADPDGSYTAHFPDGSSASYSSLEEVKANLKAKYPDVKDVVIEKTSAGGSAGGSAGG [r11_806_JUSTAS]", "Answer Label": "yes (1)"}
{"Query Sequence": "SAGGSAGGSAKKTAVIELIDPKDPKPKTITIPFDLKDGKTSLEELKKLVPDYTITSIAVFDDSAGGSAGGSA [r18_494_TrMRF]", "Answer Label": "no (0)"}
